Taken from patent US12084445B2.

System: E. coli ATCC 25922 (wild-type/QC strain)
Experiment: broth microdilution MIC assay, E. coli ATCC 25922
Type: cell-based
Conditions: Escherichia coli, ATCC25922; Table 4; E. coli 25922; read-out: E. coli 25922 MIC
measure: MIC

compound	MIC
C[C@@H](O)[C@H]1C(=O)N2C(C(=O)O)=C(SC3CCN(CC4CCNCC4)CC3)[C@H](C)[C@H]12	1 to 4 µg/mL
CN[C@H]1CC[C@H](CN2CC(SC3=C(C(=O)O)N4C(=O)[C@H]([C@@H](C)O)[C@H]4[C@H]3C)C2)CC1	< 1 µg/mL
C[C@@H](O)[C@H]1C(=O)N2C(C(=O)O)=C(S[C@@H]3CCN(C[C@H]4CNCCO4)C3)[C@H](C)[C@H]12	< 1 µg/mL
CCN[C@H]1CC[C@@H](CN2CC(SC3=C(C(=O)O)N4C(=O)[C@H]([C@@H](C)O)[C@H]4[C@H]3C)C2)CC1	< 1 µg/mL
C[C@@H](O)[C@H]1C(=O)N2C(C(=O)O)=C(S[C@@H]3CCN(CC4CCNCC4(F)F)C3)[C@H](C)[C@H]12 (stereo partly drawn)	< 1 µg/mL
C[C@@H](O)[C@H]1C(=O)N2C(C(=O)O)=C(S[C@@H]3CCN(C[C@H]4CCN(C(=N)N)C4)C3)[C@H](C)[C@H]12	< 1 µg/mL
CNC1CCC(CN2CC(SC3=C(C(=O)O)N4C(=O)[C@H]([C@@H](C)O)[C@H]4[C@H]3C)C2)CC1 (stereo partly drawn)	< 1 µg/mL
CNCCCCN1CC[C@@H](SC2=C(C(=O)O)N3C(=O)[C@H]([C@@H](C)O)[C@H]3[C@H]2C)C1	< 1 µg/mL
C[C@@H](O)[C@H]1C(=O)N2C(C(=O)O)=C(S[C@@H]3CCN(C[C@@H]4CNCCO4)C3)[C@H](C)[C@H]12	< 1 µg/mL
C[C@@H](O)[C@H]1C(=O)N2C(C(=O)O)=C(SC3CN(C[C@H]4CC[C@H](NC(=N)N)CC4)C3)[C@H](C)[C@H]12	< 1 µg/mL

# input Please report the recorded MIC for C[C@@H](O)[C@H]1C(=O)N2C(C(=O)O)=C(SC3CN(C[C@H]4CC[C@@H](N(C)C(=N)N)CC4)C3)[C@H](C)[C@H]12 .
# output < 1 µg/mL

# input Please report the recorded MIC for C[C@@H](O)[C@H]1C(=O)N2C(C(=O)O)=C(S[C@@H]3CCN(C[C@@H]4CCN(C(=N)N)C4)C3)[C@H](C)[C@H]12 .
# output < 1 µg/mL

###

System: S. aureus USA600
Assay: broth microdilution MIC assay, S. aureus USA 600
Type: cell-based
Conditions: Staphylococcus aureus; Table 4; S. aureus USA600; read-out: S. aureus USA600 MIC
measure: MIC

Worked examples, 5 molecules total:
molecule	measure	observed_value
C[C@@H](O)[C@H]1C(=O)N2C(C(=O)O)=C(S[C@@H]3CCN(C[C@@H]4CNCCO4)C3)[C@H](C)[C@H]12	MIC	1 to 4 µg/mL
C[C@@H](O)[C@H]1C(=O)N2C(C(=O)O)=C(S[C@@H]3CCN(C[C@H]4CCN(C(=N)N)C4)C3)[C@H](C)[C@H]12	MIC	< 1 µg/mL
C[C@@H](O)[C@H]1C(=O)N2C(C(=O)O)=C(SC3CN(C[C@H]4CC[C@H](NC(=N)N)CC4)C3)[C@H](C)[C@H]12	MIC	< 1 µg/mL
C[C@@H](O)[C@H]1C(=O)N2C(C(=O)O)=C(SC3CN(C[C@H]4CC[C@@H](N(C)C(=N)N)CC4)C3)[C@H](C)[C@H]12	MIC	1 to 4 µg/mL
C[C@@H](O)[C@H]1C(=O)N2C(C(=O)O)=C(SC3CN(CCC4CCNCC4)C3)[C@H](C)[C@H]12	MIC	1 to 4 µg/mL

# input Please report the recorded MIC for C[C@@H](O)[C@H]1C(=O)N2C(C(=O)O)=C(SC3CN(CC4CCNCC4)C3)[C@H](C)[C@H]12 .
# output 1 to 4 µg/mL

# input Please report the recorded MIC for C[C@@H](O)[C@H]1C(=O)N2C(C(=O)O)=C(SC3CN(C[C@H]4CC[C@H](N)CC4)C3)[C@H](C)[C@H]12 .
# output < 1 µg/mL

# input Please report the recorded MIC for C[C@@H](O)[C@H]1C(=O)N2C(C(=O)O)=C(SC3CN(C[C@@H]4CCNC4)C3)[C@H](C)[C@H]12 .
# output 1 to 4 µg/mL

# input Please report the recorded MIC for C[C@@H](O)[C@H]1C(=O)N2C(C(=O)O)=C(S[C@@H]3CCN(CC4CCN(C)CC4)C3)[C@H](C)[C@H]12 .
# output 1 to 4 µg/mL
